- targetOfAssay: α-7 nicotinic ACh receptor ion channel (Rattus norvegicus)
- Construct: expressed in transfected cells
- assayExplanation: FLIPR Ca2+-sensitive fluorescence assay of α7 nicotinic acetylcholine receptor channel function (agonist activity) in HEK 293 cells
- Type: cell-based
- measurementConditions: Table 3; Ca2+ flux, HEK-293 cells expressing the channel
pEC50: −log10 of the molar value.
Reported values of pEC50 for individual entries
endpoint: pEC50

structureNotation	valueOperator	quantitativeReadout
O=C(c1cc(-c2ccccc2)[nH]n1)N1[C@@H]2C[C@H]3CC[N@@](C2)C[C@H]31	<	4.00
O=C(c1nccc2ccccc12)N1[C@@H]2C[C@H]3CC[N@@](C2)C[C@H]31	=	4.35
Cc1ccc2c(C(=O)N3[C@@H]4C[C@H]5CC[N@@](C4)C[C@H]53)n[nH]c2c1	=	6.72
O=C(c1n[nH]c2cc(F)ccc12)N1[C@@H]2C[C@H]3CC[N@@](C2)C[C@H]31	=	6.37
O=C(c1n[nH]c2cc(Cl)ccc12)N1[C@@H]2C[C@H]3CC[N@@](C2)C[C@H]31	=	7.07
O=C(c1cc(C2CC2)[nH]n1)N1[C@@H]2C[C@H]3CC[N@@](C2)C[C@H]31	<	4.00
O=C(c1n[nH]c2ccccc12)N1[C@@H]2C[C@H]3CC[N@@](C2)C[C@H]31	=	6.82
O=C(c1noc2ccccc12)N1[C@@H]2C[C@H]3CC[N@@](C2)C[C@H]31	=	5.51
O=C(c1n[nH]c2c(Cl)cccc12)N1[C@@H]2C[C@H]3CC[N@@](C2)C[C@H]31	=	4.44
O=C(c1n[nH]c2ncccc12)N1[C@@H]2C[C@H]3CC[N@@](C2)C[C@H]31	=	5.04

---

- targetOfAssay: α-7 nicotinic ACh receptor ion channel (Rattus norvegicus, UniProt Q05941)
- Construct: expressed in transfected cells
- Sequence (Q05941 23-502): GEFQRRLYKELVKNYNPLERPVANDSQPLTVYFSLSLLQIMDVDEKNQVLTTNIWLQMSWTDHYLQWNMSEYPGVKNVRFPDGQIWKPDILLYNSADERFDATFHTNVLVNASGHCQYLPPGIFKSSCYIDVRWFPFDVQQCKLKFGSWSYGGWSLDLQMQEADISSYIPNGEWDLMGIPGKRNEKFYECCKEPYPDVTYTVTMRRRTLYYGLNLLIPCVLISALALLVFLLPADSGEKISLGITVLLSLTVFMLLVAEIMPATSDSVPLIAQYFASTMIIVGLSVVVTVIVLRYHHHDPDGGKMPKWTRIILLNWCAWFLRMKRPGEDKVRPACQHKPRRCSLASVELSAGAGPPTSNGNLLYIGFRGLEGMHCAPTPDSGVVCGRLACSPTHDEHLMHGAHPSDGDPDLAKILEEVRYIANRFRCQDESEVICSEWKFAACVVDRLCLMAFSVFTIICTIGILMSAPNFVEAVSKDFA
- assayExplanation: FLIPR Ca2+-sensitive fluorescence assay of α7 nicotinic acetylcholine receptor channel function (agonist activity) in HEK 293 cells
- Type: cell-based
- measurementConditions: Table 1; Ca2+ flux, HEK-293 cells expressing the channel
pEC50: −log10 of the molar value.
Reported values of pEC50 for individual entries

compound	targetOfAssay	pEC50
Cn1cc(C(=O)N2C3CC4CCN(C3)CC42)c2ccccc21 (stereo not drawn)	α-7 nicotinic ACh receptor ion channel (Rattus norvegicus, UniProt Q05941)	< 4.00
O=C(c1cc2c(Cl)cccc2s1)N1C2CC3CCN(C2)CC31 (stereo not drawn)	α-7 nicotinic ACh receptor ion channel (Rattus norvegicus, UniProt Q05941)	< 4.00
O=C(c1cc2ccccc2o1)N1C2CC3CCN(C2)CC31 (stereo not drawn)	α-7 nicotinic ACh receptor ion channel (Rattus norvegicus, UniProt Q05941)	< 4.00
O=C(c1cc2ccccc2s1)N1C2CC3CCN(C2)CC31 (stereo not drawn)	α-7 nicotinic ACh receptor ion channel (Rattus norvegicus, UniProt Q05941)	4.29
O=C(c1ccc(Cl)cc1)N1C2CC3CCN(C2)CC31 (stereo not drawn)	α-7 nicotinic ACh receptor ion channel (Rattus norvegicus, UniProt Q05941)	< 4.00
O=C(c1n[nH]c2ccc(Br)cc12)N1C2CC3CCN(C2)CC31 (stereo not drawn)	α-7 nicotinic ACh receptor ion channel (Rattus norvegicus, UniProt Q05941)	6.15

---

Reported values of pEC50 for individual entries
- targetOfAssay: α7-HI (Rattus norvegicus)
- Construct: expressed in transfected cells
- assayExplanation: FLIPR Ca2+-sensitive fluorescence assay, α7-HI (agonist activity) in HEK 293 cells
- Type: cell-based
- measurementConditions: Table 4; Ca2+ flux, HEK-293 cells expressing the channel; read-out: FLIPR α7-HI (EC50)
pEC50: −log10 of the molar value.
endpoint: pEC50

compound	endpoint	valueOperator	quantitativeReadout
Cc1ccc2c(C(=O)N3[C@H]4C[C@@H]5C[N@@](CC[C@@H]53)C4)n[nH]c2c1 [Example 49a]	pEC50	=	8.51
COc1ccc2[nH]nc(C(=O)N3C4CC5CN(CCC53)C4)c2c1 (centres unmarked) [Example 41]	pEC50	<	4.00
O=C(c1cc2cccc(Cl)c2s1)N1C2CC3CN(CCC31)C2 (centres unmarked) [Example 35]	pEC50	=	5.25
O=C(c1noc2ccccc12)N1C2CC3CN(CCC31)C2 (centres unmarked) [Example 47]	pEC50	=	5.89
O=C(c1n[nH]c2ccc(Cl)cc12)N1C2CC3CN(CCC31)C2 (centres unmarked) [Example 40]	pEC50	=	7.10

---

- targetOfAssay: α7-HI (Rattus norvegicus)
- Construct: expressed in transfected cells
- assayExplanation: FLIPR Ca2+-sensitive fluorescence assay, α7-HI (agonist activity) in HEK 293 cells
- Assay type: cell-based
- measurementConditions: Table 4; Ca2+ flux, HEK-293 cells expressing the channel; read-out: FLIPR α7-HI (EC50)
pEC50: −log10 of the molar value.

molecule	targetOfAssay	valueOperator	pEC50
O=C(c1n[nH]c2cc(F)ccc12)N1C2CC3CN(CCC31)C2 (stereo not drawn) [Example 42]	α7-HI (Rattus norvegicus)	=	7.27
O=C(c1n[nH]c2cc(Cl)ccc12)N1C2CC3CN(CCC31)C2 (stereo not drawn) [Example 46]	α7-HI (Rattus norvegicus)	=	8.00
Cn1nc(C(=O)N2C3CC4CN(CCC42)C3)c2ccccc21 (stereo not drawn) [Example 37]	α7-HI (Rattus norvegicus)	<	4.00
O=C(c1n[nH]c2ccccc12)N1C2CC3CN(CCC31)C2 (stereo not drawn) [Example 34]	α7-HI (Rattus norvegicus)	=	7.54
COc1cccc2[nH]nc(C(=O)N3C4CC5CN(CCC53)C4)c12 (stereo not drawn) [Example 48]	α7-HI (Rattus norvegicus)	=	5.13
Cc1ccc2c(C(=O)N3[C@@H]4C[C@H]5C[N@](CC[C@H]53)C4)n[nH]c2c1 [Example 49b]	α7-HI (Rattus norvegicus)	=	7.33
O=C(c1n[nH]c2c(Cl)cccc12)N1C2CC3CN(CCC31)C2 (stereo not drawn) [Example 45]	α7-HI (Rattus norvegicus)	<	4.00
Cn1cc(C(=O)N2C3CC4CN(CCC42)C3)c2ccccc21 (stereo not drawn) [Example 39]	α7-HI (Rattus norvegicus)	<	4.00
O=C(c1cc(-c2ccccc2)n[nH]1)N1C2CC3CN(CCC31)C2 (stereo not drawn) [Example 38]	α7-HI (Rattus norvegicus)	<	4.00

---

- targetOfAssay: α7-HI (Rattus norvegicus, UniProt Q05941)
- Construct: expressed in transfected cells
- assayExplanation: FLIPR Ca2+-sensitive fluorescence assay, α7-HI (agonist activity) in HEK 293 cells
- Format: cell-based
- measurementConditions: Table 4; Ca2+ flux, HEK-293 cells expressing the channel; read-out: FLIPR α7-HI (EC50)
pEC50: −log10 of the molar value.

compound	valueOperator	pEC50
O=C(c1n[nH]c2ccccc12)N1[C@H]2C[C@@H]3C[N@@](CC[C@@H]31)C2 (single isomer, unassigned) [Example 34a]	=	8.12
Cc1ccc2c(C(=O)N3C4CC5CN(CCC53)C4)n[nH]c2c1 (centres unmarked)	=	8.38
COc1ccc2c(C(=O)N3C4CC5CN(CCC53)C4)n[nH]c2c1 (centres unmarked)	=	7.64
O=C(c1n[nH]c2ccc(Br)cc12)N1C2CC3CN(CCC31)C2 (centres unmarked)	<	4.00
O=C(c1ccc(Cl)cc1)N1C2CC3CN(CCC31)C2 (centres unmarked)	<	4.00

---

Reported values of EC50 for individual entries
- targetOfAssay: α-7 nicotinic ACh receptor ion channel (Rattus norvegicus, UniProt Q05941)
- Construct: expressed in transfected cells
- assayExplanation: FLIPR Ca2+-sensitive fluorescence assay of α7 nicotinic acetylcholine receptor channel function (agonist activity) in HEK 293 cells
- Assay type: cell-based
- measurementConditions: Table 1; Ca2+ flux, HEK-293 cells expressing the channel
- Description: I) α7 Nicotinic Acetycholine Receptor Binding. Membranes were prepared for binding using HEK293 cells stably expressing the rat α7 nicotinic acetycholine receptor (rat α7 nAChR). […] II) A Ca^2+-Sensitive, Fluorescence-Based Assay α-7 for Nicotinic Acetylcholine Receptor Channel Function in Mammalian Cells (“FLIPR”). Summary: Lead compounds are evaluated for agonist activity at α-7, α3β4, α4αβ2, and α1β1δ1ε sub-types of nicotinic ACh receptor ion channels expressed in mammalian HEK 293 cells. […]
endpoint: EC50

compound	endpoint	result
COc1ccc2[nH]nc(C(=O)N3C4CC5CCN(C4)CC53)c2c1 (stereo not shown)	EC50	> 100 µM
O=C(c1cc2cccc(Cl)c2s1)N1C2CC3CCN(C2)CC31 (stereo not shown)	EC50	> 100 µM
COc1cccc2[nH]nc(C(=O)N3C4CC5CCN(C4)CC53)c12 (stereo not shown)	EC50	> 50 µM
Cn1nc(C(=O)N2C3CC4CCN(C3)CC42)c2ccccc21 (stereo not shown)	EC50	> 100 µM
